System: MDA-MB-231 human breast cancer cells
Experiment: Cell proliferation assay (CellTiter-Glo, 72 hours treatment)
Format: cell-based
Conditions: Homo sapiens; MDA-MB-231 cells, 72 hours at 37° C., CellTiter-Glo; read-out: MDA-MB-231 cell proliferation assay (IC50)
parameter-measured: IC50

INSERT INTO measurements (compound, observed_result) VALUES
  ('COc1nc(C#N)cc2c1[C@]1(O)[C@H](O)[C@H](CN(C)C)[C@@H](c3ccccc3)[C@]1(c1ccc(C(F)(F)F)cc1)O2 (single isomer, unassigned) [147F]', '< 0.1 µM'),
  ('COc1nc(C#N)cc2c1[C@]1(O)[C@H](O)[C@H](CN(C)C)[C@@H](c3ccccc3)[C@]1(c1ccc(Cl)cc1)O2 (single isomer, unassigned) [145F]', '< 0.1 µM'),
  ('COc1nc(C#N)cc2c1[C@]1(O)[C@H](O)[C@H](CN3CCOCC3)[C@@H](c3ccccc3)[C@]1(c1ccc(C#N)cc1)O2 (single isomer, unassigned) [151F]', '< 0.1 µM'),
  ('COC(=O)[C@@H]1[C@@H](c2ccccc2)[C@]2(c3ccc(Br)cc3)Oc3cc(Cl)cnc3[C@@]23O[C@@H]13 (racemic) [161F]', '> 1 µM'),
  ('COc1nc(Cl)cc2c1[C@]1(O)[C@@H](CN3CCOCC3)[C@H](CO)[C@@H](c3ccccc3)[C@]1(c1ccc(Br)cc1)O2 (racemic) [199F]', '< 0.1 µM'),
  ('COc1ccc([C@@]23Oc4cc(OC)ccc4[C@]2(N=[N+]=[N-])[C@H](O)[C@H](C(=O)N(C)C)[C@H]3c2ccccc2)cc1 (racemic) [42F]', '0.1 to 1 µM'),
  ('CN(C)S(=O)(=O)[C@H]1[C@@H](O)[C@@]2(O)c3ncc(Cl)cc3O[C@@]2(c2ccc(C#N)cc2)[C@@H]1c1ccccc1 (racemic) [22F]', '0.1 to 1 µM'),
  ('COc1cncc2c1[C@]1(O)[C@@H](CN3CC4(COC4)C3)[C@H](CO)[C@@H](c3ccccc3)[C@]1(c1ccc(C#N)cc1)O2 (racemic) [202F]', '< 0.1 µM'),
  ('COc1cncc2c1[C@]1(O)[C@H](O)[C@H](C(=O)NCC(C)(C)O)[C@@H](c3ccccc3)[C@]1(c1ccc(Br)cc1)O2 (racemic) [253F]', '< 0.1 µM'),
  ('Cc1ccc(S(=O)(=O)NN=C2C[C@@H](c3ccccc3)[C@]3(c4ccc(Br)cc4)Oc4cc(Cl)cnc4[C@]23O)cc1 (racemic) [132F]', '> 1 µM'),
  ('COc1cncc2c1[C@]1(O)[C@H](O)[C@H](CN(C)CC(F)F)[C@@H](c3ccccc3)[C@]1(c1ccc(C#N)cc1)O2 (single isomer, unassigned) [112F]', '0.1 to 1 µM'),
  ('O[C@@H]1C2(CC2)[C@@H](c2ccccc2)[C@]2(c3ccc(Br)cc3)Oc3cc(Cl)cnc3[C@]12O (racemic) [92F]', '> 1 µM'),
  ('COc1cncc2c1[C@]1(O)[C@H](O)[C@H](CN3CCOCC3)[C@@H](c3ccccc3)[C@]1(c1ccc(C(F)(F)F)cc1)O2 (single isomer, unassigned) [282F]', '0.1 to 1 µM'),
  ('O[C@]12c3ncc(Cl)cc3O[C@@]1(c1ccc(Br)cc1)[C@H](c1ccccc1)C[C@@H]2CN1CCOCC1 (racemic) [177F]', '0.1 to 1 µM'),
  ('COc1cncc2c1[C@]1(O)[C@H](O)[C@H](CN3CCCCC3)[C@@H](c3ccccc3)[C@]1(c1ccc(C#N)cc1)O2 (single isomer, unassigned) [258F]', '< 0.1 µM'),
  ('NC[C@H]1C[C@@H](c2ccccc2)[C@]2(c3ccc(Br)cc3)Oc3cc(Cl)cnc3[C@]12O (racemic) [174F]', '< 0.1 µM'),
  ('CN(C)C[C@H]1[C@@H](O)[C@@]2(O)c3ncc(Cl)cc3O[C@@]2(c2ccc(C(F)(F)F)cc2)[C@@H]1c1ccccc1 (single isomer, unassigned) [109F]', '0.1 to 1 µM'),
  ('COc1nc(Cl)cc2c1[C@]1(O)[C@H](O)[C@H](CN3CC(F)(F)C3)[C@@H](c3ccccc3)[C@]1(c1ccc(C#N)cc1)O2 (racemic) [207Fb]', '0.1 to 1 µM'),
  ('COc1nc(C#N)cc2c1[C@]1(O)[C@H](O)[C@H](CN3CCN(C)CC3)[C@@H](c3ccccc3)[C@]1(c1ccc(C#N)cc1)O2 (racemic) [198Fb]', '< 0.1 µM'),
  ('COc1cncc2c1[C@]1(O)[C@@H](CNCC(F)F)[C@H](CO)[C@@H](c3ccccc3)[C@]1(c1ccc(Br)cc1)O2 (racemic) [181F]', '< 0.1 µM'),
  ('COc1cncc2c1[C@]1(O)[C@@H](CNCc3ccnn3C)[C@H](CO)[C@@H](c3ccccc3)[C@]1(c1ccc(Br)cc1)O2 (racemic) [203F]', '< 0.1 µM'),
  ('COc1nc(C#N)cc2c1[C@]1(O)[C@H](O)[C@H](CN3CC(F)(F)C3)[C@@H](c3ccccc3)[C@]1(c1ccc(C#N)cc1)O2 (racemic) [207Fa]', '0.1 to 1 µM'),
  ('COc1nc(C#N)cc2c1[C@]1(O)[C@H](O)[C@H](CN(C)CC(F)F)[C@@H](c3ccccc3)[C@]1(c1ccc(C#N)cc1)O2 (racemic) [208Fa]', '0.1 to 1 µM'),
  ('O[C@]12c3ncc(Cl)cc3O[C@@]1(c1ccc(Br)cc1)[C@H](c1ccccc1)C[C@@]21CCO1 (racemic) [38F]', '> 1 µM');
